biological target: Mu-type opioid receptor (Homo sapiens); test: Tested for effective concentration against cloned human Opioid receptor mu 1
Measure Name: pEC50
One number for each entry, as −log10 of the molar value.

-- ask Quick one: pEC50 for "C[C@@H]1[C@H]2c3cc(NCc4ccccc4)ccc3C[C@@H](c3ccc(NCc4ccccc4)cc32)N1C" ?
-- reply 5.37

* * *

molecular target: Mu-type opioid receptor (Homo sapiens, UniProt P35372); experiment: biochemical
Sequence (P35372 whole entry): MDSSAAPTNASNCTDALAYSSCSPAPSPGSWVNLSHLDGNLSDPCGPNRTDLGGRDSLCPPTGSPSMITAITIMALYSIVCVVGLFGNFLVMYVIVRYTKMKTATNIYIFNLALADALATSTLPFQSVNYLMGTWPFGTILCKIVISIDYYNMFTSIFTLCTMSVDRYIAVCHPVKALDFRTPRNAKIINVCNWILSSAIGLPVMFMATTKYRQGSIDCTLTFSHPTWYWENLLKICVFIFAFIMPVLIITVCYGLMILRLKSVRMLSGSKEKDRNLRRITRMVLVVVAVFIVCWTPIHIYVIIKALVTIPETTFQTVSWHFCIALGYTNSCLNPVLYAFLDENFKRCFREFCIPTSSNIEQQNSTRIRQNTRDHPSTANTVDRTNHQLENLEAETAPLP
Description: In vitro binding affinity against cloned human Opioid receptor mu 1 expressed in HEK 293S cells
Exercise: for every item that follows, state its recorded IC50.
Give bare numbers, in nM.

CC(=O)Oc1ccc2c(c1)[C@H]1c3cc(OC(C)=O)ccc3[C@H](C2)N(CC2CC2)[C@@H]1C 44
C[C@@H]1[C@H]2c3ccccc3C[C@@H](c3ccccc32)N1C 230

Switching to the query record.
-- ask Quick one: IC50 for "COc1ccc2c(c1)[C@H]1c3cc(OC)ccc3[C@H](C2)N(C)[C@@H]1C" ?
-- reply 420
